Assignment: determine reported pEC50 for the given compounds.
# Tested on: peripheral blood mononuclear cell (PBMC)
# test.description: Peripheral blood mononuclear cell assay (cytokine levels)
# Format: cell-based
# measurement.parameters: 1 h with compound, wash, 15 h, average of at least two donors, read-out: PBMC EC50 TNF-α
Numbers only, as −log10 of the molar value.

Before answering, review these 3 worked examples.
compound	result.type	numeric.readout
CCCCCCCC(=O)OCOP1(=O)OC[C@H]2OC[C@@H](n3cnc4c(N)ncnc43)[C@@H]2OP(=O)(OCOC(=O)CCCCCCC)OC[C@H]2O[C@@H](n3cnc4c(N)ncnc43)[C@H](F)[C@@H]2O1 (single isomer, unassigned) [Compound 58d]	pEC50	7.43
CC1(C(=O)OCOP2(=O)OC[C@H]3OC[C@@H](n4cnc5c(N)ncnc54)[C@@H]3OP(=O)(OCOC(=O)C3(C)CCCCC3)OC[C@H]3O[C@@H](n4cnc5c(N)ncnc54)[C@H](F)[C@@H]3O2)CCCCC1 (single isomer, unassigned) [Compound 56d]	pEC50	6.80
CC(C)(C)C(=O)OCOP1(=O)OC[C@H]2OC[C@@H](n3cnc4c(N)ncnc43)[C@@H]2OP(=O)(OCOC(=O)C(C)(C)C)OC[C@H]2O[C@@H](n3cnc4c(N)ncnc43)[C@H](F)[C@@H]2O1 (single isomer, unassigned) [Compound 36d]	pEC50	6.49

# context switch: different compound, same pEC50
Look at this compound and give its reported pEC50. CCC(C)(C)C(=O)OCOP1(=O)OC[C@H]2OC[C@@H](n3cnc4c(N)ncnc43)[C@@H]2OP(=O)(OCOC(=O)C(C)(C)CC)OC[C@H]2O[C@@H](n3cnc4c(N)ncnc43)[C@H](F)[C@@H]2O1 (single isomer, unassigned) [Compound 57d]
6.69
